From: PubChem BioAssay (NCATS)

System: Zika virus NS2B-NS3 protease (linked construct)
measurement-description: Primary screen NINDS Rhodamine qHTS for Zika virus inhibitors (AID 1347160); further: nearly all actives have a fitted effect of over 55% in size
cond: purified NS2B-NS3 protease, Rhodamine110 substrate fluorescence; series mostly up to 57.1 µM
Results filed as inconclusive are left out. The source made the active and inactive calls. The call rests on the fitted dose curve; in most records, active means well fitted inhibition curve with a large enough effect; inconclusive means small, poorly fitted or top-dose-only effect; inactive means no such curve, though single readings can be large or run the other way. Where a SMILES comes first, the peptide text is derived from it. The star is where a group is joined. AFC = O=c1cc(C(F)(F)F)c2ccc(N*)cc2o1
In this exercise, the only acceptable responses are y (active), n (inactive)

Each molecule tested received a call. Report the one for CCc1ccc(Cc2ccc3c(c2)[C@]2(OC3)O[C@H](CO)[C@@H](O)[C@H](O)[C@H]2O)cc1 .
n

Repeat for the following molecule: NCc1ccc(Nc2ncc(F)c(Nc3ccccc3)n2)cc1
n

Repeat for the following molecule: O=S(=O)(NC1CCC(c2cc(F)ccc2F)(S(=O)(=O)c2ccc(Cl)cc2)CC1)C(F)(F)F (configuration not stated)
y

Repeat for the following molecule: CCOC(=O)c1sc(NC(=O)[C@H](C(C)C)n2c(=O)[nH]c3ccccc3c2=O)nc1C
n

Repeat for the following molecule: CCC(C)C(=O)O[C@H]1CCC=C2C=C[C@H](C)[C@H](CC[C@@H](O)C[C@@H](O)CC(=O)O)[C@H]21 (some centres not stated)
n

Repeat for the following molecule: CC(=O)N[C@@H](Cc1c[nH]c2ccccc12)C(=O)N[C@@H](CCC(=O)O)C(=O)N[C@@H](Cc1cnc[nH]1)C(=O)N[C@@H](CC(=O)O)C(=O)Nc1ccc2c(C(F)(F)F)cc(=O)oc2c1 (Ac-WEHD-{AFC})
n

Repeat for the following molecule: COc1ccc(C2(O)c3ccccc3NC(=O)C2O)cc1 (configuration not stated)
n

Repeat for the following molecule: CC(Nc1ncnc2nc[nH]c12)c1cc2cccc(Cl)c2c(=O)n1-c1ccccc1 (configuration not stated)
n

Repeat for the following molecule: CC1(C)CCCC2(C)C(C(=O)O)=CCC12 (configuration not stated)
n

Repeat for the following molecule: CC1(C)CC2C(C1)C(C)(O)C13CC1(COC3=O)C2O (configuration not stated)
n

Repeat for the following molecule: C=CC1(C)C=C2CCC3C(C)(C)C(O[C@@H]4O[C@@H](CO)[C@H](O)[C@H]4O)CCC3(C)C2CC1O[C@@H]1O[C@H](C)[C@H](O)[C@H](O)[C@H]1O (some centres not stated)
n

Repeat for the following molecule: CC(C)(C(=O)NCC(F)(F)C(F)(F)F)C(=O)NC1C(=O)Nc2ccccc2-c2ccccc21 (configuration not stated)
n

Repeat for the following molecule: CC1(C)CCCC2(C)C(CO)C(CO)=CCC12 (configuration not stated)
n

Repeat for the following molecule: O=C(O[C@H]1[C@@H]2C=CO[C@@H](O[C@@H]3O[C@H](CO)[C@@H](O)[C@H](O)[C@H]3O)[C@@H]2[C@@]2(CO)O[C@@H]12)c1ccccc1
n

Repeat for the following molecule: CC(=O)NC[C@H]1CN(c2ccc(N3CCN(C(=O)CO)CC3)c(F)c2)C(=O)O1
n

Repeat for the following molecule: CC(C)c1cc(CNc2nc(Nc3cc(C4CC4)[nH]n3)cc(N3CCN(C)CC3)n2)on1
n

Repeat for the following molecule: C[C@H]1Oc2cc(cnc2N)-c2c(nn(C)c2C#N)CN(C)C(=O)c2ccc(F)cc21
n

---

Tested on: NIH3T3
measurement-description: Cytotoxic Profiling of Annotated Libraries Using Quantitative High-Throughput Screening (AID 1296008); further: on the % scale 0 is the no-effect control and ±100 the full control effect; nearly all actives have a fitted effect of over 60% in size
cond: Five cell lines viability, CellTiter-Glo ATP luminescence, 48-72 h; active compounds read low
Protocol: Cell-based phenotypic screening is a commonly used approach to discover biological pathways, novel drug targets, chemical probes and high-quality hit-to-lead molecules. […] A pintool (Kalypsys) was used to transfer 23 nL of compound solution to the 1536-well assay plates. […] Plates were left at room temperature for 10 min before imaging the ATP-coupled luminescence using a ViewLux microplate imager (PerkinElmer, Waltham, MA).
Inconclusive results are not listed.
Please provide measured max response for the entries that follow.
Numbers only here, please. The scale is %.

Quick check: max response on NIH3T3, item CC(=O)/C=C/[C@H]1[C@](C)(O)[C@@H](O)[C@H](OC(C)=O)C2C(C)(C)CCC[C@@]21C (some centres not stated) ?
-10.6

Repeat for the following compound: C=C1C(O)C(O)C2(CC3C(C)=CCC4C(C)(CO)CCCC34C)OC2C1O (configuration not stated)
-5.46

Repeat for the following compound: OCCc1ccc(O[C@@H]2O[C@H](CO)[C@@H](O)[C@H](O)[C@H]2O)cc1
2.39

Repeat for the following compound: CC12CCC(C(OC3OC(COC4OCC(O)(CO)C4O)C(O)C(O)C3O)C1)C(C)(C)O2 (configuration not stated)
0.27

Repeat for the following compound: CC/C=C\CCO[C@@H]1O[C@H](CO[C@@H]2OC[C@H](O)[C@H](O)[C@H]2O)[C@@H](O)[C@H](O)[C@H]1O
-20.8

Repeat for the following compound: CC12CCC(OC3OC(CO)C(O)C(OC4OC(CO)C(O)C(O)C4O)C3O)CC1=CCC1C2CCC2(C)/C(=C3/COC(=O)C3)CCC12O (configuration not stated)
-3.87

Repeat for the following compound: CC(=O)OC[C@]12[C@H](OC(C)=O)C(=O)[C@@H]3[C@@H](OC(C)=O)[C@@]14O[C@@]3(C)COC(=O)c1cccnc1[C@@H](C)[C@H](C)C(=O)O[C@@H]([C@H](O)[C@@H]2OC(C)=O)[C@]4(C)O
-21

---

measurement-description: Primary qHTS for inhibitors of nuclear receptor binding SET domain protein 2 (NSD2) in an isogenic RCH-ACV NSD2 p.E1099K mutant (9B) (AID 1645876); further: nearly all actives have a fitted effect of over 70% in size
cond: RCH-ACV (leukaemia line) NSD2 E1099K (9B) viability, CellTiter-Glo, 72 h; series mostly up to 44.9 µM
Records with an inconclusive call do not appear. Activity calls are given as the source filed them. The call rests on the fitted dose curve; in most records, active means well fitted inhibition curve with a large enough effect; inconclusive means small, poorly fitted or top-dose-only effect; inactive means flat fitted curve, though single readings scatter.
measured-property: outcome

Example compounds with recorded outcome:
What value of outcome has been recorded for this entry: CC1=C2C3OC(=O)C(C)C3(O)CCC2(C)CCC1O (stereo not given)
inactive

Repeat for the following compound: CC[C@H]1OC(=O)[C@H](C)[C@@H](O[C@H]2C[C@@](C)(OC)[C@@H](O)[C@H](C)O2)[C@H](C)[C@@H](O[C@@H]2O[C@H](C)C[C@H](N(C)C)[C@H]2O)[C@](C)(O)C[C@@H](C)C(=O)[C@H](C)[C@H]2OC(=O)O[C@@]21C
inactive

Repeat for the following compound: C[C@H](NC(c1cccc(C[P+](=O)O)c1)[C@H](C)O)c1ccc(Cl)c(Cl)c1 (stereo not given in full)
inactive

Repeat for the following compound: O=C(Cc1ccc(-c2ccccc2)cc1)NC1CCC1
inactive

Repeat for the following compound: C=C(C)C1CCC(C)C12CC(O)C1(C)OC1C2OC(=O)C(N)CCC(=O)O (stereo not given)
inactive

Repeat for the following compound: COC(=O)c1cc(OC)c(O[C@@H]2O[C@@H](C)[C@H](O)[C@@H](O)[C@H]2O)c(OC)c1
inactive

Repeat for the following compound: COc1cc([C@H]2c3cc(O)c(OC)cc3C[C@@H](CO[C@@H]3O[C@H](CO)[C@@H](O)[C@H](O)[C@H]3O)[C@@H]2CO)ccc1O
inactive

Repeat for the following compound: CC(C)CC(=O)O[C@@H]1OC=C(CO[C@@H]2O[C@H](CO)[C@@H](O)[C@H](O)[C@H]2O)[C@H]2[C@@H]3O[C@H]3[C@@](O)(CO)[C@@H]12
inactive

Further cases:
What value of outcome has been recorded for this entry: CC(C)(C)C(=O)CN1C(=O)[C@H](NC(=O)Nc2cccc(C(=O)O)c2)CN(C2CCCCC2)c2ccccc21
inactive

Repeat for the following compound: NCc1c[nH]c(=S)n1[C@@H]1CCc2c(F)cc(F)cc2C1
inactive

Repeat for the following compound: CC(C)C(C#N)O[C@@H]1O[C@H](CO[C@@H]2O[C@@H](C)[C@H](O)[C@@H](O)[C@H]2O)[C@@H](O)[C@H](O)[C@H]1O (stereo not given in full)
inactive

---

measurement-description: Primary fluorescence-based thiol-reactive (MSTI) qHTS assay for identification of artifact compounds. (AID 1845221); further: nearly all actives have a fitted effect of over 65% in size; further: potency means the concentration at half of the fitted maximal effect
cond: MSTI thiol-reactivity probe, 1 h; series mostly up to 53.8 µM
Records with an inconclusive call do not appear. Calls of active or inactive are those of the source. Calls come from the whole dose curve; as a rule, active = well fitted inhibition curve with a large enough effect; inconclusive = small, poorly fitted or top-dose-only effect; inactive = no such curve, though single readings can be large or run the other way.
measured-property: Potency

Example compounds with recorded Potency:
What value of Potency has been recorded for this entry: CC(C)c1ccc(CO)cc1O[C@@H]1O[C@H](CO)[C@@H](O)[C@H](O)[C@H]1O
13.1 µM (active)

Repeat for the following compound: CC(C)C[C@H](CC(=O)NO)C(=O)N[C@@H](Cc1ccc2ccccc2c1)C(=O)N[C@@H](C)C(=O)NCCN
inactive

Repeat for the following compound: CC(=O)OC[C@]12[C@H](OC(C)=O)C(=O)[C@@H]3[C@@H](OC(C)=O)[C@@]14O[C@@]3(C)COC(=O)c1cccnc1[C@@H](C)[C@H](C)C(=O)O[C@@H]([C@H](O)[C@@H]2OC(C)=O)[C@]4(C)O
inactive

Repeat for the following compound: CNC(=S)NS(=O)(=O)c1cc(CCNC(=O)c2cc(Cl)ccc2OC)ccc1OC
inactive

Repeat for the following compound: O=C(N/N=C/c1ccc(O)c(O)c1)c1cc2ccccc2cc1O
0.707 µM (active)

Repeat for the following compound: COc1ccc([C@@H]2OC[C@H]3[C@@H]2CO[C@@H]3c2ccc(OC3OC(CO)C(O)C(O)C3O)c(OC)c2)cc1OC (stereo not given in full)
8.22 µM (active)

Please turn your attention to the following entry.
What value of Potency has been recorded for this entry: CCNCc1nc2c(N)nc3ccccc3c2n1CC(C)(C)O
inactive
